# CLH per entry
test system: Liver microsomes; assay: Intrinsic clearance in human liver microsomes at 1 uM after 60 mins by LC-MS/MS analysis; format: ADME, Microsome; conditions: 1 h
property.label: CLH (L/min)

>>> observed("Cl.Clc1ccc(Sc2ccccc2N2CCNCC2)cc1")
0.6
>>> observed("Cc1ccc(Sc2ccccc2N2CCNCC2)cc1.Cl")
1.1
>>> observed("Cc1ccc(Sc2ccccc2N2CCNCC2)c(C)c1.Cl")
0.5
>>> observed("Cc1ccc(Sc2ccccc2N2CCNCC2)cc1C.Cl")
0.5
>>> observed("Cl.Clc1ccc(Sc2ccccc2N2CCNCC2)c(Cl)c1")
0.5
>>> observed("Cc1ccc(Sc2ccccc2N2CCNCC2)c(Cl)c1.Cl")
0.6
